- Test: Biodistribution in mouse Cloudman S91 tumor bearing DBA2 mouse liver at 10 mg/kg, ip after 48 hrs
- Type: ADME, organism-based
- Set-up: dose 10 mg/kg, route intraperitoneal
- Particulars: read-out: Drug uptake
Result type: concentration at 48 h
Mention the unit after the number when you answer.

## Input Entry `CCNS(=O)(=O)c1ccc(Cl)c(-c2c3nc(c(-c4c(Cl)ccc(S(=O)(=O)NCC)c4Cl)c4ccc([nH]4)c(-c4c(Cl)ccc(S(=O)(=O)NCC)c4Cl)c4nc(c(-c5c(Cl)ccc(S(=O)(=O)NCC)c5Cl)c5ccc2[nH]5)CC4)CC3)c1Cl` : reported concentration at 48 h = ?
## Output 2400 ng/g

---

- Test: Biodistribution in mouse Cloudman S91 tumor bearing DBA2 mouse intestine at 10 mg/kg, ip after 72 hrs
- Assay type: ADME, organism-based
- Set-up: dose 10 mg/kg, route intraperitoneal
- Particulars: read-out: Drug uptake
Result type: concentration at 72 h (ng/g)
All answers are understood in ng/g, so give the number only.

## Input Query: concentration at 72 h; subject: `CCNS(=O)(=O)c1ccc(Cl)c(-c2c3nc(c(-c4c(Cl)ccc(S(=O)(=O)NCC)c4Cl)c4ccc([nH]4)c(-c4c(Cl)ccc(S(=O)(=O)NCC)c4Cl)c4nc(c(-c5c(Cl)ccc(S(=O)(=O)NCC)c5Cl)c5ccc2[nH]5)CC4)CC3)c1Cl`
## Output 300

---

- Test: Biodistribution in mouse Cloudman S91 tumor bearing DBA2 mouse spleen at 10 mg/kg, ip after 12 hrs
- Type: ADME, organism-based
- Design: dose 10 mg/kg, route intraperitoneal
- Particulars: read-out: Drug uptake
Result type: concentration at 12 h (ng/g)
Give your result in ng/g as a bare value.

## Input Any idea what concentration at 12 h was measured for `CCNS(=O)(=O)c1ccc(Cl)c(-c2c3nc(c(-c4c(Cl)ccc(S(=O)(=O)NCC)c4Cl)c4ccc([nH]4)c(-c4c(Cl)ccc(S(=O)(=O)NCC)c4Cl)c4nc(c(-c5c(Cl)ccc(S(=O)(=O)NCC)c5Cl)c5ccc2[nH]5)CC4)CC3)c1Cl` ?
## Output 6100

---

- Test: Biodistribution in mouse Cloudman S91 tumor bearing DBA2 mouse muscle at 10 mg/kg, ip after 6 hrs
- Assay type: ADME, organism-based, Muscle tissue
- Parameters: dose 10 mg/kg, route intraperitoneal
- Particulars: read-out: Drug uptake
Result type: concentration at 6 h

## Input Consider the molecule `CCNS(=O)(=O)c1ccc(Cl)c(-c2c3nc(c(-c4c(Cl)ccc(S(=O)(=O)NCC)c4Cl)c4ccc([nH]4)c(-c4c(Cl)ccc(S(=O)(=O)NCC)c4Cl)c4nc(c(-c5c(Cl)ccc(S(=O)(=O)NCC)c5Cl)c5ccc2[nH]5)CC4)CC3)c1Cl` and give its measured concentration at 6 h.
## Output 50 ng/g

---

- Test: Biodistribution in mouse Cloudman S91 tumor bearing DBA2 mouse spleen at 10 mg/kg, ip after 24 hrs
- Format: ADME, organism-based
- Parameters: dose 10 mg/kg, route intraperitoneal
- Particulars: read-out: Drug uptake
Result type: concentration at 24 h
Answer with the figure and its unit, nothing else.

## Input Which concentration at 24 h is reported for this compound? `CCNS(=O)(=O)c1ccc(Cl)c(-c2c3nc(c(-c4c(Cl)ccc(S(=O)(=O)NCC)c4Cl)c4ccc([nH]4)c(-c4c(Cl)ccc(S(=O)(=O)NCC)c4Cl)c4nc(c(-c5c(Cl)ccc(S(=O)(=O)NCC)c5Cl)c5ccc2[nH]5)CC4)CC3)c1Cl`
## Output 10000 ng/g
